Square brackets hold non-standard residues; d marks the D form. Peptide text beside a SMILES is read from it. * marks the point of attachment. Phe(4-NO2) = N[CH](Cc1ccc([N+](=O)[O-])cc1)C(=O)O; Cbz = O=C(OCc1ccccc1)*
Exercise: for every item that follows, state its recorded GI50.

Test system HCT-15; read-out GI50; what value for O=C(/C=C/c1ccc(OCc2ccccc2)cc1)NCc1ccc(C(=O)NCCc2c[nH]c3ccccc23)cc1 ?
> 94 µM

Test system HCT-15; read-out GI50; what value for CCOC(=O)C1=C(C)CC2C(=O)OC(=O)C2C1(C)C (configuration not stated) ?
> 100 µM

Test system HCT-15; read-out GI50; what value for CC1CC(C2=CC=CCS2)=Nc2ccccc2S1 (configuration not stated) ?
> 100 µM

Test system HCT-15; read-out GI50; what value for O=C(C1OC1c1ccc(F)cc1)C12CC3CC(CC(C3)C1)C2 (configuration not stated) ?
15.5 µM

Test system HCT-15; read-out GI50; what value for CC(=O)c1cc2c(s1)C(=O)c1ccsc1C2=O ?
0.179 µM

Test system HCT-15; read-out GI50; what value for Cc1cs/c(=N\C(P(=O)(O)O)P(=O)(O)O)n1C ?
> 100 µM

Test system HCT-15; read-out GI50; what value for COC(=O)C(CCCCN)NC(C)=O.Cc1ccc(C(=O)Nc2ccc(S(=O)(=O)O)c3cc(S(=O)(=O)O)cc(S(=O)(=O)O)c23)cc1NC(=O)c1cccc(NC(=O)Nc2cccc(C(=O)Nc3cc(C(=O)Nc4ccc(S(=O)(=O)O)c5cc(S(=O)(=O)O)cc(S(=O)(=O)O)c45)ccc3C)c2)c1 ?
23.9 µM

Test system HCT-15; read-out GI50; what value for COC(=O)[C@@H](COC(=O)/C=C/c1ccc(OC(C)=O)c(OC(C)=O)c1)NC(=O)/C=C/c1ccc(OC(C)=O)c(OC(C)=O)c1 ?
19.7 µM

Test system HCT-15; read-out GI50; what value for CCOC(=O)c1nc2c(Cl)c3ncccc3cc2[nH]c1=O ?
19 µM

Test system HCT-15; read-out GI50; what value for CCCCNCC(=O)O[C@]1(CC)C(=O)OCc2c1cc1n(c2=O)Cc2cc3ccccc3nc2-1 ?
2.15 µM

Test system HCT-15; read-out GI50; what value for CC(=O)OC1CC2(C)C(OC(C)=O)CC1C2(C)C (configuration not stated) ?
> 100 µM

Test system HCT-15; read-out GI50; what value for CC1(C)CC(=O)C(C(=O)Nc2cccs2)=C(O)C1 ?
33.9 µM

Test system HCT-15; read-out GI50; what value for CCOC(=O)CCC(NC(=O)OCc1ccccc1)C(=O)NC(CCC(=O)OCC)C(=O)NC(CCC(=O)OCC)C(=O)NC(CCC(=O)OCC)C(=O)NC(CCC(=O)OCC)C(=O)NC(Cc1ccc([N+](=O)[O-])cc1)C(=O)NC(CCC(=O)OCC)C(=O)NC(CCC(=O)OCC)C(=O)NC(CCC(=O)OCC)C(=O)NC(CCC(=O)OCC)C(=O)NC(CCC(=O)OCC)C(=O)OCC (configuration not stated) (Cbz-E(OEt)E(OEt)E(OEt)E(OEt)E(OEt)[Phe(4-NO2)]E(OEt)E(OEt)E(OEt)E(OEt)E(OEt)-OEt; configuration not given here) ?
> 50 µM

Test system HCT-15; read-out GI50; what value for COc1cc2c(cc1OC)C(C(CO)CO)N(CC(O)CCl)CC2 (configuration not stated) ?
> 100 µM

Test system HCT-15; read-out GI50; what value for NNC(=S)N/N=C(/C(=O)Nc1ccc(Cl)c(Cl)c1)C(C1OC(=O)c2ccccc21)[N+](=O)[O-] (configuration not stated) ?
> 100 µM

Test system HCT-15; read-out GI50; what value for Cc1ccc(Nc2nc3c(s2)C(=O)c2ccccc2C3=O)c(C)c1 ?
17.5 µM

Test system HCT-15; read-out GI50; what value for Clc1ccc(CSc2ncnc3c2ncn3C2CCCCO2)cc1 (configuration not stated) ?
26.5 µM

Test system HCT-15; read-out GI50; what value for COc1cc(COC(=O)N(C)[C@@H](Cc2ccccc2)C(=O)O)c([N+](=O)[O-])cc1OC ?
> 100 µM

Test system HCT-15; read-out GI50; what value for O=C(CC1(O)C(=O)Nc2ccc(Br)cc21)c1ccc(Cl)cc1 (configuration not stated) ?
> 100 µM

Test system HCT-15; read-out GI50; what value for CC1CC2C(=O)NC(=O)C2c2[nH]c3ccccc3c21 (configuration not stated) ?
> 100 µM

Test system HCT-15; read-out GI50; what value for CN1Cc2cc3cc4c(cc3nc2N(C)C1)OCCO4 ?
> 100 µM

Test system HCT-15; read-out GI50; what value for O=CC12c3ccccc3C(c3ccccc31)C1C(=O)NC(=O)C12 (configuration not stated) ?
> 100 µM

Test system HCT-15; read-out GI50; what value for CC(C)=CCOc1ccc(-c2coc3cc4c(c(O)c3c2=O)C=CC(C)(C)O4)cc1 ?
21 µM

Test system HCT-15; read-out GI50; what value for C[C@H]1CC[P+](Cc2ccccc2)(c2ccccc2)C1 (some centres not stated) ?
> 100 µM

Test system HCT-15; read-out GI50; what value for CC1=C2C(O)C(C(C)C(=O)NC(C)C)CCC2(C)C=CC1=O (configuration not stated) ?
> 100 µM

Test system HCT-15; read-out GI50; what value for CC1=C2C(=O)c3ccccc3C(=O)[C@H]2C[C@@H](N2CCCCCC2=O)O1 ?
20.7 µM

Test system HCT-15; read-out GI50; what value for Cn1nnnc1SC(F)(F)c1nc2ccccc2o1 ?
> 100 µM

Test system HCT-15; read-out GI50; what value for COc1cc2c(cc1OC)C1C=NC(C(=O)O)(C2)c2ccccc21 (configuration not stated) ?
> 100 µM

Test system HCT-15; read-out GI50; what value for O=C1NCC2=C1CCC1c3ccccc3CCN21 (configuration not stated) ?
> 100 µM

Test system HCT-15; read-out GI50; what value for S=C(/N=C1/NCC(CN2CCN(c3ccccc3)CC2)O1)Nc1ccccc1 (configuration not stated) ?
32.4 µM

Test system HCT-15; read-out GI50; what value for N#Cc1nc(CCC(c2nc(C#N)c(N)o2)N2C(=O)c3ccccc3C2=O)oc1N (configuration not stated) ?
> 100 µM

Test system HCT-15; read-out GI50; what value for Nc1ccc2nc3n(c2c1)C(=O)c1ccccc1-3 ?
> 100 µM
